# Test system: human small cell lung cancer cell line SW2
# assay-method-text: In vitro cytotoxicity to SW2 cells, 24 h exposure, growth back-extrapolation assay
# Assay type: cell-based
# experimental-setup: 24 h exposure to the drug, read-out: IC50, free drug, SW2 cells
property-name: IC50 (nM)
Respond numerically; units are nM and should not be typed.

Fill: IC50 (human small cell lung cancer cell line SW2) for this molecule COc1c(O)c2c(c3cc(C(=O)N4CCc5c4c(O)c(OC)c4[nH]c(C(=O)N6CC7CC78C6=CC(=O)c6[nH]cc(C)c68)cc54)[nH]c13)CCN2C(N)=O (stereo not shown) [CC-1065]
0.2
